molecular target: UniProtKB P06239; assay: radiometric filter-binding kinase assay; settings: compound 10.0 µM; ATP 100 µM
Sequence (P06239 whole entry, looked up): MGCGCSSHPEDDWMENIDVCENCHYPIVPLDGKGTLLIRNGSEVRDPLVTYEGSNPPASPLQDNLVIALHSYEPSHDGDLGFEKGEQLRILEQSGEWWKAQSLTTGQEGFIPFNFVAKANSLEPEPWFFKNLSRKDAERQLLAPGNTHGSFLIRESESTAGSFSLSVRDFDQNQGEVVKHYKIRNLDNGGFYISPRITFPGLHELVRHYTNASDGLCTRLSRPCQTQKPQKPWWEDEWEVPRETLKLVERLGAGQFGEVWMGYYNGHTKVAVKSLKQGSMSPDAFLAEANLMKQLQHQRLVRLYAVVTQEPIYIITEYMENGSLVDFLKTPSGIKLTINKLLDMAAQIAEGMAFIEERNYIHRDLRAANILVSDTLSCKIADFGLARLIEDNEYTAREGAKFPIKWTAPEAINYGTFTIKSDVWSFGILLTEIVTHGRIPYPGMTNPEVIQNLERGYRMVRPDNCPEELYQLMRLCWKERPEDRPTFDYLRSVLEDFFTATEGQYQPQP
As shown below, each of these molecules has a reported residual activity value.
Reported metric: residual activity (%)

smiles_input=CC[C@@H](CO)Nc1nc(NCc2ccccc2)c2ncn(C(C)C)c2n1 assayed_target="UniProtKB P06239" unit_string=% observed_value=97
smiles_input=O=C1Nc2ccccc2/C1=C1\Nc2ccccc2\C1=N/O assayed_target="UniProtKB P06239" unit_string=% observed_value=11
smiles_input=CC(C)[C@H](CO)Nc1nc(Nc2cccc(Cl)c2)c2ncn(C(C)C)c2n1 assayed_target="UniProtKB P06239" unit_string=% observed_value=22
smiles_input=COC(=O)[C@@]1(OC)C[C@@H]2O[C@]1(C)n1c3ccccc3c3c4c(c5c6ccccc6n2c5c31)C(=O)N(C)C4 assayed_target="UniProtKB P06239" unit_string=% observed_value=94
smiles_input=CN(C)S(=O)(=O)c1ccc2c(c1)/C(=C/c1cc3c([nH]1)CCCC3)C(=O)N2 assayed_target="UniProtKB P06239" unit_string=% observed_value=8

* * *

molecular target: RPS6KA5 KD1 KD2 (human) (UniProt O75582); assay: radiometric filter-binding kinase assay; settings: compound 10.0 µM; ATP 100 µM
Sequence (O75582 whole entry, looked up): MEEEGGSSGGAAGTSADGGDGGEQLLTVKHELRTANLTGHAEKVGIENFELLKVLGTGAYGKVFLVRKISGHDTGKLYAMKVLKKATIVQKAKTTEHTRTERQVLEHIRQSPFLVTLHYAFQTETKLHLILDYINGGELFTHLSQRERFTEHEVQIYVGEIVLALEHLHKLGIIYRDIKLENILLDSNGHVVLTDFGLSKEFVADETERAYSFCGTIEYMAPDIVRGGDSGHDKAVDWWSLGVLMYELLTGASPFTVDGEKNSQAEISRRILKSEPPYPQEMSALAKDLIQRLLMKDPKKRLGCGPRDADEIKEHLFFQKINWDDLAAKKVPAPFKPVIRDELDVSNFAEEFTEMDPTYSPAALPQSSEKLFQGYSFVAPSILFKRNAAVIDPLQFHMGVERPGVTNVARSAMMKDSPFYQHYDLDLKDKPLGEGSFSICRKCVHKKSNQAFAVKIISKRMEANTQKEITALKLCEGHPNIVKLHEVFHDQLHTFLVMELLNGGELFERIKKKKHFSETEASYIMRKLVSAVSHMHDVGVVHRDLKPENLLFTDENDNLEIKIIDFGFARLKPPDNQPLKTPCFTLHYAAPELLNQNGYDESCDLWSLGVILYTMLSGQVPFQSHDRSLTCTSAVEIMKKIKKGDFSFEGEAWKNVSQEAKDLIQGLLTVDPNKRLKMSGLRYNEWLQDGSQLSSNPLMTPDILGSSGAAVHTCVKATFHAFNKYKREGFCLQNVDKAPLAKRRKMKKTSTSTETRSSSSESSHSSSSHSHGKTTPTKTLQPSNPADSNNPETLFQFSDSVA
# reported residual activity; entries follow
Reported metric: residual activity (%)

smiles_input=O=C1c2ccccc2-c2n[nH]c3cccc1c23 assayed_target="RPS6KA5 KD1 KD2 (human) (UniProt O75582)" reported_metric="residual activity" observed_value=51
smiles_input=O=C(O[C@@H]1Cc2c(O)cc(O)cc2O[C@@H]1c1cc(O)c(O)c(O)c1)c1cc(O)c(O)c(O)c1 assayed_target="RPS6KA5 KD1 KD2 (human) (UniProt O75582)" reported_metric="residual activity" observed_value=88
smiles_input=COC(=O)[C@@]1(OC)C[C@@H]2O[C@]1(C)n1c3ccccc3c3c4c(c5c6ccccc6n2c5c31)C(=O)N(C)C4 assayed_target="RPS6KA5 KD1 KD2 (human) (UniProt O75582)" reported_metric="residual activity" observed_value=74
smiles_input=CC(C)[C@H](CO)Nc1nc(Nc2cccc(Cl)c2)c2ncn(C(C)C)c2n1 assayed_target="RPS6KA5 KD1 KD2 (human) (UniProt O75582)" reported_metric="residual activity" observed_value=88
smiles_input=CN(C)S(=O)(=O)c1ccc2c(c1)/C(=C/c1cc3c([nH]1)CCCC3)C(=O)N2 assayed_target="RPS6KA5 KD1 KD2 (human) (UniProt O75582)" reported_metric="residual activity" observed_value=94
smiles_input=CC[C@@H](CO)Nc1nc(NCc2ccccc2)c2ncn(C(C)C)c2n1 assayed_target="RPS6KA5 KD1 KD2 (human) (UniProt O75582)" reported_metric="residual activity" observed_value=92
smiles_input=O=C1Cc2c([nH]c3ccc([N+](=O)[O-])cc23)-c2ccccc2N1 assayed_target="RPS6KA5 KD1 KD2 (human) (UniProt O75582)" reported_metric="residual activity" observed_value=98
smiles_input=O=C1Cc2c([nH]c3ccc(Br)cc23)-c2ccccc2N1 assayed_target="RPS6KA5 KD1 KD2 (human) (UniProt O75582)" reported_metric="residual activity" observed_value=92
smiles_input=Cc1ccc(-c2nn(C(C)(C)C)c3ncnc(N)c23)cc1 assayed_target="RPS6KA5 KD1 KD2 (human) (UniProt O75582)" reported_metric="residual activity" observed_value=55
smiles_input=Nc1ncnc2c1cnn2-c1ccccc1 assayed_target="RPS6KA5 KD1 KD2 (human) (UniProt O75582)" reported_metric="residual activity" observed_value=93
smiles_input=CC(C)(C)n1nc(-c2ccc(Cl)cc2)c2c(N)ncnc21 assayed_target="RPS6KA5 KD1 KD2 (human) (UniProt O75582)" reported_metric="residual activity" observed_value=57
smiles_input=O=C1Nc2ccccc2/C1=C1\Nc2ccccc2\C1=N/O assayed_target="RPS6KA5 KD1 KD2 (human) (UniProt O75582)" reported_metric="residual activity" observed_value=40
